# credit: ChEMBL document CHEMBL4184290

# Test system: COX1/COX2
# protocol.summary: Inhibition of ovine COX1/human COX2 assessed as reduction in PGF2alpha production at 100 uM preincubated for 10 mins followed by arachidonic acid substrate addition measured after 2 mins by colorimetric assay relative to control
# experimental.context: sheep (COX1) / human (COX2), ovine COX1/human COX2 enzyme, probe arachidonic acid
inhibition at 2 min, 100 µM for assorted compounds
value.kind: inhibition at 2 min, 100 µM (%)

>  <chemical.string>
CCCCCCOc1ccc(-c2nn(-c3ccc(Cl)cc3)cc2/C=C2/SC(=O)N(CC(=O)O)C2=O)cc1

>  <value.kind>
inhibition at 2 min, 100 µM

>  <endpoint.value>
1.2

$$$$
>  <chemical.string>
CCCCOc1ccc(-c2nn(-c3ccc(Cl)cc3)cc2C=C2C(=O)NC(=S)NC2=O)cc1

>  <value.kind>
inhibition at 2 min, 100 µM

>  <endpoint.value>
4.4

$$$$
>  <chemical.string>
CCOc1ccc(-c2nn(-c3ccc(Cl)cc3)cc2C=C2C(=O)NC(=S)NC2=O)cc1

>  <value.kind>
inhibition at 2 min, 100 µM

>  <endpoint.value>
1

$$$$
>  <chemical.string>
CCCCCCCCCCOc1ccc(-c2nn(-c3ccc(Cl)cc3)cc2C=C2C(=O)NC(=S)NC2=O)cc1

>  <value.kind>
inhibition at 2 min, 100 µM

>  <endpoint.value>
11

$$$$

====

# target.desc: Prostaglandin E synthase (Homo sapiens) (UniProt O14684)
# Sequence (whole entry): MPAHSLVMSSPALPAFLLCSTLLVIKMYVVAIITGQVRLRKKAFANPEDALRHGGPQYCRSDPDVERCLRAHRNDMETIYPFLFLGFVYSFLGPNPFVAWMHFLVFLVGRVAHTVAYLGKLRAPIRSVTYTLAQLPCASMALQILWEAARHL
# protocol.summary: Inhibition of human mPGES1 expressed in 293 cell microsomes at 10 uM preincubated for 15 mins followed by PGH2 substrate addition measured after 3 secs by enzyme immunoassay relative to control
inhibition for assorted molecules

>  <chemical.string>
CCCCOc1ccc(-c2nn(-c3ccc(Cl)cc3)cc2C=C2C(=O)NC(=S)NC2=O)cc1

>  <target.desc>
Prostaglandin E synthase (Homo sapiens) (UniProt O14684)

>  <inhibition>
> 70%

$$$$
>  <chemical.string>
CCCCOc1ccc(-c2nn(-c3ccc(Cl)cc3)cc2C=C2C(=O)NC(=O)NC2=O)cc1

>  <target.desc>
Prostaglandin E synthase (Homo sapiens) (UniProt O14684)

>  <inhibition>
> 70%

$$$$
>  <chemical.string>
CCCCCCOc1ccc(-c2nn(-c3ccc(Cl)cc3)cc2/C=C(\C#N)C(=O)O)cc1

>  <target.desc>
Prostaglandin E synthase (Homo sapiens) (UniProt O14684)

>  <inhibition>
> 70%

$$$$
>  <chemical.string>
CCOc1ccc(-c2nn(-c3ccc(Cl)cc3)cc2/C=C(\C#N)C(N)=O)cc1

>  <target.desc>
Prostaglandin E synthase (Homo sapiens) (UniProt O14684)

>  <inhibition>
32%

$$$$
>  <chemical.string>
CCOc1ccc(-c2nn(-c3ccc(Cl)cc3)cc2/C=C2/SC(=O)NC2=O)cc1

>  <target.desc>
Prostaglandin E synthase (Homo sapiens) (UniProt O14684)

>  <inhibition>
> 70%

$$$$
>  <chemical.string>
CCCCCCCCOc1ccc(-c2nn(-c3ccc(Cl)cc3)cc2C=C2C(=O)NC(=O)NC2=O)cc1

>  <target.desc>
Prostaglandin E synthase (Homo sapiens) (UniProt O14684)

>  <inhibition>
> 70%

$$$$
>  <chemical.string>
CCCCCCCCCCOc1ccc(-c2nn(-c3ccc(Cl)cc3)cc2C=C2C(=O)NC(=O)NC2=O)cc1

>  <target.desc>
Prostaglandin E synthase (Homo sapiens) (UniProt O14684)

>  <inhibition>
> 70%

$$$$
